- System: MCF7 complex spheroid growth, % test/control
- assay-details: Anticancer human tumor MCF7 cell line growth inhibition [Asc]; active means viability on the fitted dose curve at most 10% of control; inactive means the rest;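 further: spheroids exposed to compounds for 7 days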
- experimental-context: second compound 1 µM; first compound 0.316 µM
Respond using exactly one of the listed classes: y = active, n = inactive

Study these solved cases before continuing.
Field: outcome | Entry: C=CC(=O)N1CCN(c2nc(=O)n(-c3c(C)ccnc3C(C)C)c3nc(-c4c(O)cccc4F)c(F)cc23)C(C)C1 (configuration not stated) + Cc1c(S(C)(=O)=O)c(-c2cc(F)cc(N3CCN(c4ccc(NS(=O)(=O)c5ccc(NC(CCN6CCC(C(=O)OCCCP(=O)(O)O)CC6)CSc6ccccc6)c(S(=O)(=O)C(F)(F)F)c5)cc4)CC3)c2)c(-c2ccc(Cl)cc2)n1C(C)C
n

Can you look up the reported call for C=CC(=O)N1CCN(c2nc(=O)n(-c3c(C)ccnc3C(C)C)c3nc(-c4c(O)cccc4F)c(F)cc23)C(C)C1 (configuration not stated) + CNC(C)C(=O)NC1CN(S(=O)(=O)c2cccc(S(=O)(=O)N3CCC4CCC(C(=O)NC(c5ccccc5)c5ccccc5)N4C(=O)C(NC(=O)C(C)NC)C3)c2)CCC2CCC(C(=O)NC(c3ccccc3)c3ccccc3)N2C1=O for me?
n

***
How was CCN1CCN(Cc2ccc(Nc3ncc(F)c(-c4cc(F)c5nc(C)n(C(C)C)c5c4)n3)nc2)CC1 + Cc1c(S(C)(=O)=O)c(-c2cc(F)cc(N3CCN(c4ccc(NS(=O)(=O)c5ccc(NC(CCN6CCC(C(=O)OCCCP(=O)(O)O)CC6)CSc6ccccc6)c(S(=O)(=O)C(F)(F)F)c5)cc4)CC3)c2)c(-c2ccc(Cl)cc2)n1C(C)C classified in this test?
n

Recorded call for C#Cc1c(F)ccc2cc(O)cc(-c3ncc4c(N5CC6CCC(C5)N6)nc(OCC56CCCN5CC(F)C6)nc4c3F)c12 (configuration not stated) + Cc1c(S(C)(=O)=O)c(-c2cc(F)cc(N3CCN(c4ccc(NS(=O)(=O)c5ccc(NC(CCN6CCC(C(=O)OCCCP(=O)(O)O)CC6)CSc6ccccc6)c(S(=O)(=O)C(F)(F)F)c5)cc4)CC3)c2)c(-c2ccc(Cl)cc2)n1C(C)C ?
n

Call for entry C=C(F)C(=O)N1CCN(c2nc(OCC3CCCN3C)nc3c2CCN(c2cccc4cccc(Cl)c24)C3)CC1CC#N (configuration not stated) + CNC(C)C(=O)NC1CN(S(=O)(=O)c2cccc(S(=O)(=O)N3CCC4CCC(C(=O)NC(c5ccccc5)c5ccccc5)N4C(=O)C(NC(=O)C(C)NC)C3)c2)CCC2CCC(C(=O)NC(c3ccccc3)c3ccccc3)N2C1=O :
y

// return assay outcome for O=C(c1cc(Cc2n[nH]c(=O)c3ccccc23)ccc1F)N1CCN(C(=O)C2CC2)CC1 + Cc1c(S(C)(=O)=O)c(-c2cc(F)cc(N3CCN(c4ccc(NS(=O)(=O)c5ccc(NC(CCN6CCC(C(=O)OCCCP(=O)(O)O)CC6)CSc6ccccc6)c(S(=O)(=O)C(F)(F)F)c5)cc4)CC3)c2)c(-c2ccc(Cl)cc2)n1C(C)C
n

Test call, this compound: O=C(c1cc(Cc2n[nH]c(=O)c3ccccc23)ccc1F)N1CCN(C(=O)C2CC2)CC1 + CNC(C)C(=O)NC1CN(S(=O)(=O)c2cccc(S(=O)(=O)N3CCC4CCC(C(=O)NC(c5ccccc5)c5ccccc5)N4C(=O)C(NC(=O)C(C)NC)C3)c2)CCC2CCC(C(=O)NC(c3ccccc3)c3ccccc3)N2C1=O
n
